Give EC50 for every item shown.
Biological target: DYRK1A (Homo sapiens (Human))
Test: DYRK1A activity Tau assay: pSer396 Tau in SH-SY5Y cells by ELISA / western blot
Conditions: overnight (16-18 h) exposure
Give the value, in units of nM, as a plain number.

Field request: EC50 | item: CCN(CC)Cc1cncc(-c2ccc3[nH]nc(C(=O)NC4CC4)c3c2)c1
7

Param item: O=C(Nc1cccc2cccnc12)c1n[nH]c2ccc(-c3cccnc3)cc12
2200

CN(C)CCNC(=O)c1n[nH]c2ccc(-c3cccc(F)c3F)cc12 , same question.
77

Do the same for O=C(NCc1cccc(F)c1)c1n[nH]c2ccc(-c3cncc(CN4CCCCC4)c3)cc12 please
2

====

Tested on: Wnt activity (Wnt-responsive SP5 promoter luciferase reporter in SW480 cells)
Experiment: Wnt activity reporter assay: SW480 cells with SP5 promoter-driven firefly luciferase
Format: cell-based
Details: Homo sapiens, 24 h after compound addition, read-out: Wnt inhibition
MEASURED_QUANTITY: pIC50
In textbook form, pIC50 equals minus log to base ten of the concentration in mol/L.

Query pIC50 on Wnt activity (Wnt-responsive SP5 promoter luciferase reporter in SW480 cells) for CN1CCC(NC(=O)c2n[nH]c3ccc(-c4cc(CN5CCCCC5)cc(F)c4F)cc23)CC1
5.77

Repeat with C[C@@H]1CN(c2ccc(NC(=O)c3n[nH]c4ccc(-c5cncc(CN6CCCCC6)c5)cc34)cn2)C[C@H](C)O1
8.52

Next molecule up: O=C(NCc1ccccc1)c1n[nH]c2ccc(-c3cc(F)cc(CN4CCCCC4)c3)cc12
5.46

// next record CN1CCN(c2ccc(NC(=O)c3n[nH]c4ccc(-c5cncc(NC(=O)c6cc(F)ccc6F)c5)cc34)cn2)CC1
7.51

Param item: CC(C)OCCCNC(=O)c1n[nH]c2ccc(-c3cccc(F)c3F)cc12
5.68

// next record COc1ccc(NC(=O)c2n[nH]c3ccc(-c4cncc(CN5CCC(F)(F)C5)c4)cc23)cn1
8.30

Also, O=C(Nc1ccc(F)cc1)c1n[nH]c2ccc(-c3cncc(F)c3)cc12 please.
5.32

====

Consider the following molecules; for each one, report its pEC50.
Molecular target: DYRK1A (Homo sapiens (Human))
Assay: DYRK1A activity Tau assay: pSer396 Tau in SH-SY5Y cells by ELISA / western blot
Type: cell-based
Details: overnight (16-18 h) exposure
Remember, pEC50 is on a log scale: it is -log10 of the molar concentration.

Entry COc1ccc(NC(=O)c2n[nH]c3ccc(-c4cncc(CN5CCC(F)(F)C5)c4)cc23)cn1 , system DYRK1A (Homo sapiens (Human)): what pEC50 was measured?
8.70

Would you kindly repeat that for CN1CCC(NC(=O)c2n[nH]c3ccc(-c4cncc(CN5CCC(F)(F)C5)c4)cc23)CC1 ?
8.10

Follow-up item: CN(C)Cc1ccc(NC(=O)c2n[nH]c3ccc(-c4cccc(F)c4F)cc23)cc1
7.27

Now the same for CN1CCC(NC(=O)c2n[nH]c3ccc(-c4ccccc4)cc23)CC1
5.94

====

Target: DYRK1A (Homo sapiens (Human))
Test: DYRK1A activity Tau assay: pSer396 Tau in SH-SY5Y cells by ELISA / western blot
Format: cell-based
Conditions: overnight (16-18 h) exposure
MEASURED_QUANTITY: pEC50
Kindly note that pEC50 refers to -log10 of the concentration in mol/L and answer with the value alone.

Recall the recorded pEC50 for CC(C)(C)CN1CCC(NC(=O)c2n[nH]c3ccc(-c4cncc(F)c4)cc23)CC1 with DYRK1A (Homo sapiens (Human)) and state it.
6.06

Same question, CC(C)(C)N1CCC(NC(=O)c2n[nH]c3ccc(-c4cccnc4)cc23)CC1 this time
7.68

And then O=C(Nc1cccc2cccnc12)c1n[nH]c2ccc(-c3cncc(CN4CCCCC4)c3)cc12 , what is it?
6.51

====

Tested on: primary human mesenchymal stem cells (hMSCs)
Test: Chondrogenesis assay in primary human mesenchymal stem cells, nodule count vs TGF-β3 positive control
Type: cell-based
Conditions: 6 days, 6-point dose-response 2700 nM to 10 nM, dose at which maximum chondrogenesis activity was reached
Kindly supply the reported Conc (nM) of Max. activity values for the records listed here.
Please respond with the number in nM and leave the unit unwritten.

Which Conc (nM) of Max. activity is reported with primary human mesenchymal stem cells (hMSCs) for this entry: Cc1ccc(NC(=O)c2n[nH]c3ccc(-c4cncc(CN5CCCCC5)c4)cc23)cn1 [Compound 65] ?
900

For CC(C)Oc1ccc(NC(=O)c2n[nH]c3ccc(-c4cncc(CN5CCCCC5)c4)cc23)cn1 [Compound 67] then?
2700

What about this compound? O=C(Nc1cccnc1)c1n[nH]c2cc(F)c(-c3cncc(CN4CCCCC4)c3)cc12 [Compound 1153]
2700

Similarly, Cc1cncc(NC(=O)c2n[nH]c3ccc(-c4cncc(CN5CCCCC5)c4)cc23)c1 [Compound 64] ?
2700

Record: O=C(Nc1ccccn1)c1n[nH]c2cc(F)c(-c3cncc(CN4CCCCC4)c3)cc12 [Compound 1343]
2700

Please answer likewise for CC(C)NC(=O)c1n[nH]c2ccc(-c3cncc(CN4CCC(F)(F)CC4)c3)cc12 [Compound 132]
2700

CC(C)CN1CCC(NC(=O)c2n[nH]c3ccc(-c4cccnc4)cc23)CC1 [Compound 91] , same question.
2700

Proceed to COc1cc(NC(=O)c2n[nH]c3ccc(-c4cncc(CN5CCCCC5)c4)cc23)ccn1 [Compound 78]
900

Can you handle O=C(Nc1ccnc(N2CCCCC2)c1)c1n[nH]c2ccc(-c3cccnc3)cc12 [Compound 103] next?
2700

Same again, this time with CC(C)N1CCC(NC(=O)c2n[nH]c3ccc(-c4cncc(Cl)c4)cc23)CC1 [Compound 1305]
2700

Check O=C(Nc1cccnc1)c1n[nH]c2cc(F)c(-c3cccnc3)cc12 [Compound 99] too.
2700

Now give it for CC(C)NC(=O)c1n[nH]c2ccc(-c3cncc(CN4CCCC4)c3)cc12 [Compound 129] too.
2700

Consider next the compound O=C(Nc1ccnc(C(F)(F)F)c1)c1n[nH]c2ccc(-c3cccnc3)cc12 [Compound 45] in the same way.
900

Another compound to check: COc1ccc(NC(=O)c2n[nH]c3ccc(-c4cncc(CN5CCCC5)c4)cc23)cn1 [Compound 53]
2700

Here is the next compound: O=C(NC1CCCCC1)c1n[nH]c2ccc(-c3cncc(N4CCCC4)c3)cc12 [Compound 200]
2700

And O=C(NC1CC1)c1n[nH]c2ccc(-c3cncnc3)cc12 [Compound 1269] ?
2700

Next up: CC(C)Oc1ccc(NC(=O)c2n[nH]c3ccc(-c4cncc(CN5CC6CC(C5)O6)c4)cc23)cn1 [Compound 85]
900

Now this one: COc1ccc(NC(=O)c2n[nH]c3ccc(-c4cncc(CN5CCC(F)(F)C5)c4)cc23)cn1 [Compound 54]
300

Now the compound C[C@@H]1CN(c2ccc(NC(=O)c3n[nH]c4ccc(-c5cncc(CN6CCCCC6)c5)cc34)cn2)C[C@H](C)O1 [Compound 1141]
2700

What do we get for CC1CCN(Cc2cncc(-c3ccc4[nH]nc(C(=O)Nc5cccnc5)c4c3)c2)CC1 [Compound 82] ?
900

Param item: C#CCN1CCC(NC(=O)c2n[nH]c3ccc(-c4cccc(F)c4F)cc23)CC1 [Compound 367]
2700

Next: O=C(Nc1ccc(N2CC(F)(F)C2)nc1)c1n[nH]c2ccc(-c3cncc(CN4CCCCC4)c3)cc12 [Compound 71]
900

Ok, now CN1CCN(c2ccc(NC(=O)c3n[nH]c4ccc(-c5cncc(CN6CCC(F)(F)C6)c5)cc34)cn2)CC1 [Compound 55]
100

Next compound: O=C(Nc1cccc2cccnc12)c1n[nH]c2ccc(-c3cccnc3)cc12 [Compound 43]
100

Now this one: Cc1ncc(NC(=O)c2n[nH]c3ccc(-c4cccnc4)cc23)cn1 [Compound 97]
2700

Follow-up entry: O=C(Nc1ccnc(C(F)(F)F)c1)c1n[nH]c2ccc(-c3cncc(CN4CCCCC4)c3)cc12 [Compound 80]
900

Now try Cc1ncc(NC(=O)c2n[nH]c3ccc(-c4cncc(CN5CCCCC5)c4)cc23)cn1 [Compound 98] .
2700

Now give it for CC(C)CC(=O)Nc1ccncc1NC(=O)c1n[nH]c2ccc(-c3cncc(CN4CCCCC4)c3)cc12 [Compound 73] too.
900

Cool, now CC(C)N1CCC(NC(=O)c2n[nH]c3ccc(-c4cccnc4)cc23)CC1 [Compound 90]
2700

What about this compound? O=C(Nc1cccnc1)c1n[nH]c2ccc(-c3cncc(CN4CC5CC(C4)O5)c3)cc12 [Compound 84]
900

And O=C(Nc1cnccc1NC(=O)C1CC1)c1n[nH]c2ccc(-c3cncc(CN4CCCCC4)c3)cc12 [Compound 74] ?
10

Also need CN1CCN(c2ccc(NC(=O)c3n[nH]c4ccc(-c5cncc(NC(=O)c6cc(F)ccc6F)c5)cc34)cn2)CC1 [Compound 48] , thanks.
2700
